# System Name: Sigma non-opioid intracellular receptor 1 (Rattus norvegicus, UniProt Q9R0C9)
# Sequence (Q9R0C9 whole entry): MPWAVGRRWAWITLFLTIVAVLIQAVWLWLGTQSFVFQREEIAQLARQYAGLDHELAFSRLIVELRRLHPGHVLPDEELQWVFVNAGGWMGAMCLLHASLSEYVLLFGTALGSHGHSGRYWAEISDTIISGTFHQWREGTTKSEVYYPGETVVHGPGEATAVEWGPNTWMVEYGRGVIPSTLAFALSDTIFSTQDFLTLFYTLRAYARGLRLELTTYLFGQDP
# Measurement Description: In vitro for binding affinity against sigma receptor using [3H](+)-3-PPP as radioligand
Measured Parameter: IC50 (nM)
Number only, in nM; omit the unit.

# example entries with known answers
Molecule	Measured Parameter	Recorded Measurement
CCCN1CCC[C@H]2c3cccc(O)c3CC[C@@H]21	IC50	438
CN1CCCC2c3cccc(O)c3CCC21 (racemic)	IC50	610
CCN1CCCC2c3cccc(O)c3CCC21 (racemic)	IC50	236

# IC50 of Oc1cccc2c1CC[C@@H]1NCCC[C@@H]21 = 3610

# IC50 of Oc1ccc2c(c1)C1CCCNC1CC2 (racemic; 18) = 1940

# IC50 of Oc1ccc2c(c1)C1CCCN(CCc3ccccc3)C1CC2 (racemic) = 27
